The origin of these recorded values is ChEMBL document CHEMBL5107971.

tested on: Pseudomonas aeruginosa; experiment: Antibacterial activity against Pseudomonas aeruginosa assessed as inhibition of cell growth upto 32 ug/ml incubated overnight by microtiter broth dilution assay; assay type: functional; conditions: dose <= 32 µg/ml
Bridge positions count the residues as written; N and C are the ends. Square brackets hold non-standard residues; d marks the D form. Peptide text beside a SMILES is read from it. S5 = C=CCCC[C@](C)(N)C(=O)O; Nle = CCCC[C@H](N)C(=O)O; βAla = NCCC(=O)O

# compound, MIC
rows = [
    ("CCCC[C@H](NC(=O)[C@H](CCC(=O)O)NC(=O)[C@H](CCCNC(=N)N)NC(=O)[C@]1(C)CCC/C=C\\CCC[C@](C)(NC(=O)[C@H](CCCNC(=N)N)NC(=O)[C@H](CCCNC(=N)N)NC(=O)[C@H](C)NC(=O)[C@@H](NC(=O)[C@H](CCCCN)NC(=O)[C@H](Cc2ccccc2)NC(=O)CCNC(C)=O)C(C)C)C(=O)N[C@@H](C(C)C)C(=O)N[C@@H](C)C(=O)N[C@@H](CCCCN)C(=O)N1)C(=O)N[C@@H](CC(C)C)C(N)=O (Ac-[βAla]FKVARR[S5]VAK[S5]RE[Nle]L-NH2; staple (Z) 8-12)", "> 32 µg/mL"),
    ("CCCC[C@H](NC(=O)[C@H](CCC(=O)O)NC(=O)[C@H](CCCNC(=N)N)NC(=O)[C@H](Cc1ccc(O)cc1)NC(=O)[C@H](CCCCN)NC(=O)[C@H](C)NC(=O)[C@]1(C)CCC/C=C\\CCC[C@](C)(NC(=O)[C@@H](NC(=O)[C@H](CCCCN)NC(=O)[C@H](Cc2ccccc2)NC(=O)CCNC(C)=O)C(C)C)C(=O)N[C@@H](CCCNC(=N)N)C(=O)N[C@@H](CCCCN)C(=O)N[C@@H]([C@@H](C)O)C(=O)N1)C(=O)N[C@@H](CC(C)C)C(N)=O (Ac-[βAla]FKV[S5]RKT[S5]AKYRE[Nle]L-NH2; staple (Z) 5-9)", "> 32 µg/mL"),
]
